// provenance: patent EP4740948A1

Reported inhibition at 0.005 µM is given for each of the following compounds.
# Tested On: EZH1 (Homo sapiens, UniProt Q92800)
# Sequence (Q92800 whole entry, species assumed): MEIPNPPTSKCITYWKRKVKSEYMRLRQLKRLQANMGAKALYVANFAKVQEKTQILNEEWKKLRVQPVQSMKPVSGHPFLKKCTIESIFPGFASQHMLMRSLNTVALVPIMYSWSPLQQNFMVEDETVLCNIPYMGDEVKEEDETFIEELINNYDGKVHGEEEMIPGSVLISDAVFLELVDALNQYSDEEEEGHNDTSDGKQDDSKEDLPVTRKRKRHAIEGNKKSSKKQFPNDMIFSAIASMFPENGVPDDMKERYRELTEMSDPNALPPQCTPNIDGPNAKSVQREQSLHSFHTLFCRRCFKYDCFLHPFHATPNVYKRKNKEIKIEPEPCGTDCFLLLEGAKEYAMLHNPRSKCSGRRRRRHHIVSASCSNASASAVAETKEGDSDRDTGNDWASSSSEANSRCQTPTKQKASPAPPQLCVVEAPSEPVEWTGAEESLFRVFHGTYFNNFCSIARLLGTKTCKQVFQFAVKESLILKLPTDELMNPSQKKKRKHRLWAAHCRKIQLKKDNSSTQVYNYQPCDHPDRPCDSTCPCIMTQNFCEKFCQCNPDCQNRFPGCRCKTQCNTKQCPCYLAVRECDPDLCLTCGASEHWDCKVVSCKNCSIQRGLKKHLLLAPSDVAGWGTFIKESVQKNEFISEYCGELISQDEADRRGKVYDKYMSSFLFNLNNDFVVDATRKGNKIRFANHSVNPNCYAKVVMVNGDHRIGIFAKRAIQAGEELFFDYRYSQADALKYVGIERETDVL
# Sequence (O75530 whole entry partner, species assumed): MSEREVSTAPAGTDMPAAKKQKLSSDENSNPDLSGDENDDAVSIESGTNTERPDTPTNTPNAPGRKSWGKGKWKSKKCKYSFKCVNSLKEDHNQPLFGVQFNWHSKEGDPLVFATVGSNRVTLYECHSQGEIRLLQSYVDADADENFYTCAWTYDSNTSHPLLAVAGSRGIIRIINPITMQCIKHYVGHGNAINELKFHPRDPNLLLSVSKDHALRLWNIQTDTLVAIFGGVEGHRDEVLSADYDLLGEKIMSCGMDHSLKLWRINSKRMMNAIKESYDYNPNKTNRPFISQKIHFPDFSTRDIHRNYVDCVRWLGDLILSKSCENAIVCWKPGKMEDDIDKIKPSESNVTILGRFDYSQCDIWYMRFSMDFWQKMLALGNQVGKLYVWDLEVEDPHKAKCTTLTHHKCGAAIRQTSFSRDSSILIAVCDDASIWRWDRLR
# Sequence (Q15022 whole entry partner, species assumed): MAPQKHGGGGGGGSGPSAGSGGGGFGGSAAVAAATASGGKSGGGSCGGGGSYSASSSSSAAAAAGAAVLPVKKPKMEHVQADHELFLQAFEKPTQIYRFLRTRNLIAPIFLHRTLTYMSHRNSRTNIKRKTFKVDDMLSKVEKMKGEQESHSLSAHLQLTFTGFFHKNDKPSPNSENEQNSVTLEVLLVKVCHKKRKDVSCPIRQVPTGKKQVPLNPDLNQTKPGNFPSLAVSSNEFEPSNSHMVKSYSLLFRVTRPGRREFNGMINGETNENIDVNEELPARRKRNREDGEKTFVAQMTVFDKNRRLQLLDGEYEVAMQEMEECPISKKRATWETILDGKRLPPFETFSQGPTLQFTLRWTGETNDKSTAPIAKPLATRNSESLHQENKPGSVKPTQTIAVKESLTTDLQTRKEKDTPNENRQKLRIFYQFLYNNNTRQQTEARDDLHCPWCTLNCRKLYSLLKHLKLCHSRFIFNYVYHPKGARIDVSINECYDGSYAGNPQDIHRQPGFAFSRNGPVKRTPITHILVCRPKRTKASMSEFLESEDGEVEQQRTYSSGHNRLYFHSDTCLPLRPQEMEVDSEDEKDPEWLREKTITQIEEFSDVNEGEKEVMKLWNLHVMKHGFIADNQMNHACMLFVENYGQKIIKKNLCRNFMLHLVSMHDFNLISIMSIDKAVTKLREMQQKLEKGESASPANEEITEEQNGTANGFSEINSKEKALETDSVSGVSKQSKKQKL
# Protocol Text: AlphaLISA enzyme activity inhibition, EZH1
# Assay type: biochemical
# Test Settings: 5nM test substance

Reference set, count: 2
>  <Compound>
COCCN(C)[C@H]1CC[C@H](C2(C)Oc3c(-c4cnc(N5C[C@@H](C)O[C@@H](C)C5)nc4)cc(C(=O)NCc4c(SC)cc(C)[nH]c4=O)c(C)c3O2)CC1 (stereo partly drawn) [Compound 25]

>  <Tested On>
EZH1 (Homo sapiens, UniProt Q92800)

>  <Measurement>
82.4%

$$$$
>  <Compound>
CCN1CCC(C2(C)Oc3c(-c4ccc(N5CCOCC5)nc4)cc(C(=O)NCc4c(SC)cc(C)[nH]c4=O)c(C)c3O2)CC1 (single isomer, unassigned) [Compound 66]

>  <Tested On>
EZH1 (Homo sapiens, UniProt Q92800)

>  <Measurement>
81.3%

$$$$

Next compound, inhibition at 0.005 µM to be filled in.
What measured inhibition at 0.005 µM goes with CSc1cc(C)[nH]c(=O)c1CNC(=O)c1cc(-c2ccc(N3C[C@@H](C)O[C@@H](C)C3)nc2)c2c(c1C)OC(C)([C@H]1CC[C@H](N(C)C[C@H](C)O)CC1)O2 (stereo partly drawn) [Compound 29] ?
91.6%
